# Tested on: FRO
# Experiment summary: MTT assay, ATC cell line, fixed concentrations
# Format: cell-based
# Condition notes: Homo sapiens, 48 h, 20000 nM, read-out: % of proliferating cells
Metric: viability at 20 µM (%)
Answers are plain numbers, in %.

Reference set (5 entries):
INSERT INTO assay_data (compound, value_observed) VALUES
  ('Cc1ccc(S(=O)(=O)Nc2ccc3c(c2)/C(=C/c2ncc[nH]2)C(=O)N3)cc1', 51),
  ('Cc1ccc(S(=O)(=O)Nc2ccc3c(c2)/C(=C/c2cnc(C)[nH]2)C(=O)N3)cc1', 57),
  ('Cc1ccc(S(=O)(=O)Nc2ccc3c(c2)C(=C2c4ccccc4-c4ccccc42)C(=O)N3)cc1', 60),
  ('Cc1ccc(S(=O)(=O)Nc2ccc3c(c2)/C(=C/c2ccn[nH]2)C(=O)N3)cc1', 55),
  ('Cc1ccc(S(=O)(=O)Nc2ccc3c(c2)/C(=C/c2cnc[nH]2)C(=O)N3)cc1', 42);

For every listed record, write down its viability at 20 µM.
1. Cc1ccc(S(=O)(=O)Nc2ccc3c(c2)C(=Cc2nccn2C)C(=O)N3)cc1 (stereo in doubt)
2. Cc1ccc(S(=O)(=O)Nc2ccc3c(c2)/C(=C/c2cn[nH]c2)C(=O)N3)cc1

55
56

* * *

# Tested on: REC1
# Experiment summary: MTT proliferation assay, B-cell lymphoma cell line
# Format: cell-based
# Condition notes: Homo sapiens; REC1, 72 h of drug incubation
# Method: All the above compounds were tested in vitro for their anticancer activity against a panel of eight B-cell lymphoma cell lines by MTT proliferation assay. The tested cell lines belonging to mantle cell lymphoma (MCL: REC1, Z138), activated B-cell diffuse large B-cell lymphoma (ABC-DLBCL: R11, HBL1, U2932, TMD8), germinal center B-cell diffuse large B-cell lymphoma (GCB-DLBCL: SU-DHL-10, FARAGE) subtypes. […]
Assign log10(IC50) to each entry below.
Heads up: the numbers are on a log10 scale; they represent IC50 in µM.

Reference set (4 entries):
INSERT INTO results (molecule, value_observed) VALUES
  ('CS(=O)(=O)Nc1ccc2c(c1)/C(=C/c1cnc[nH]1)C(=O)N2 [FC100, reference compound]', 1.20),
  ('CS(=O)(=O)Nc1ccc2c(c1)/C(=C/c1cccs1)C(=O)N2 [FC96, reference compound]', 1.18),
  ('Cc1ccc(S(=O)(=O)Nc2ccc3c(c2)/C(=C/c2cnc[nH]2)C(=O)N3)cc1', 0.00),
  ('Cc1ccc(S(=O)(=O)Nc2ccc3c(c2)C(=Cc2nccn2C)C(=O)N3)cc1 (stereo in doubt)', -1.30);

Lab note: next molecule to report on.
Notebook: "Cc1ccc(S(=O)(=O)Nc2ccc3c(c2)/C(=C/c2cccs2)C(=O)N3)cc1" , log10(IC50) read as -2.00

* * *

Assign viability at 20 µM to each entry below.
# System: Nthory
# Experiment summary: MTT assay, ATC cell line, fixed concentrations
# Format: cell-based
# Condition notes: Homo sapiens, 48 h, 20000 nM, read-out: % of proliferating cells
Answers are plain numbers, in %.

INSERT INTO measurements (molecule, value_observed) VALUES
  ('Cc1ccc(S(=O)(=O)Nc2ccc3c(c2)/C(=C/c2cn[nH]c2)C(=O)N3)cc1', 34),
  ('Cc1ccc(S(=O)(=O)Nc2ccc3c(c2)C(=Cc2cccnc2N)C(=O)N3)cc1 [SB20A]', 63),
  ('Cc1ccc(S(=O)(=O)Nc2ccc3c(c2)C(=Cc2nccn2C)C(=O)N3)cc1 (stereo in doubt)', 47);

Notebook: "Cc1ccc(S(=O)(=O)Nc2ccc3c(c2)/C(=C/c2cnc[nH]2)C(=O)N3)cc1" , viability at 20 µM read as 38

* * *

Assign pIC50 to each entry below.
# System: Z138
# Experiment summary: MTT proliferation assay, B-cell lymphoma cell line
# Format: cell-based
# Condition notes: Homo sapiens, Z-138; Z138, 72 h of drug incubation
Numbers only, as −log10 of the molar value.

Reference set (3 entries):
INSERT INTO results (compound, metric, value_observed) VALUES
  ('CS(=O)(=O)Nc1ccc2c(c1)/C(=C/c1cnc[nH]1)C(=O)N2 [FC100, reference compound]', 'pIC50', 5.10),
  ('Cc1ccc(S(=O)(=O)Nc2ccc3c(c2)/C(=C/c2cccs2)C(=O)N3)cc1', 'pIC50', 7.60),
  ('Cc1ccc(S(=O)(=O)Nc2ccc3c(c2)/C(=C/c2cnc[nH]2)C(=O)N3)cc1', 'pIC50', 6.30);

Lab note: next compound to report on.
Notebook: Cc1ccc(S(=O)(=O)Nc2ccc3c(c2)C(=Cc2nccn2C)C(=O)N3)cc1 (stereo in doubt) , pIC50 read as 7.30

* * *

# System: Nthory
# Experiment summary: MTT assay, ATC cell line, fixed concentrations
# Format: cell-based
# Condition notes: Homo sapiens, 48 h, 20000 nM, read-out: % of proliferating cells
Assign viability at 20 µM to each entry below.
Answers are plain numbers, in %.

Reference set (3 entries):
INSERT INTO results (structure_string, value_observed) VALUES
  ('Cc1ccc(S(=O)(=O)Nc2ccc3c(c2)/C(=C/c2cnc(C)[nH]2)C(=O)N3)cc1', 41),
  ('Cc1ccc(S(=O)(=O)Nc2ccc3c(c2)/C(=C/c2ccn[nH]2)C(=O)N3)cc1', 48),
  ('Cc1ccc(S(=O)(=O)Nc2ccc3c(c2)C(=C2c4ccccc4-c4ccccc42)C(=O)N3)cc1', 15);

Lab note: next molecule to report on.
Notebook: "Cc1ccc(S(=O)(=O)Nc2ccc3c(c2)/C(=C/c2ncc[nH]2)C(=O)N3)cc1" , viability at 20 µM read as 43

* * *

Assign viability at 20 µM to each entry below.
# Tested on: SW1736
# Experiment summary: MTT assay, ATC cell line, fixed concentrations
# Assay type: cell-based
# Condition notes: Homo sapiens, SW-1736, 48 h, SW1736, 20000 nM, read-out: % of proliferating cells

Reference set (2 entries):
INSERT INTO measurements (compound, value_observed) VALUES
  ('Cc1ccc(S(=O)(=O)Nc2ccc3c(c2)/C(=C/c2ncc[nH]2)C(=O)N3)cc1 [SB19]', '59%'),
  ('Cc1ccc(S(=O)(=O)Nc2ccc3c(c2)C(=Cc2nccn2C)C(=O)N3)cc1 (stereo in doubt) [FC91]', '60%');

Notebook: Cc1ccc(S(=O)(=O)Nc2ccc3c(c2)/C(=C/c2cn[nH]c2)C(=O)N3)cc1 [SB18] , viability at 20 µM read as 59%
